Origin of the recorded values: the METLIN SMRT retention time set (Domingo-Almenara et al. 2019)

Assay: gradient 5% acetonitrile 3 min, to 50% in 2 min, to 85% in 15 min, held 3 min, 100 µL/min
Settings: column: Zorbax Extend-C18 2.1 x 50 mm; eluents: water / acetonitrile, 0.1% formic acid
assay_readout: RP-LC retention time (s)

See these solved cases before continuing.
{"line_notation": "CC(C)(C)c1nnc2n(c1=O)N=C(c1ccc(F)cc1)CS2", "RP-LC retention time [s]": 857}
{"line_notation": "Cc1ccc2nc(-c3cccc(Cl)c3)c(Nc3ccc4c(c3)OCCO4)n2c1", "RP-LC retention time [s]": 724}
{"line_notation": "CCc1nc2ncc(-c3ccnc(N4CCN(Cc5ccccc5)CC4)n3)c(C)n2n1", "RP-LC retention time [s]": 607}
{"line_notation": "CCOC(=O)c1c(S(=O)(=O)N2CCC(C(=O)Nc3ccc(F)c(F)c3)CC2)c(C)n(C)c1C", "RP-LC retention time [s]": 890}
{"line_notation": "COc1ccc(CNS(=O)(=O)c2c(C)nn(-c3ccc(-c4ccc(C)cc4)nn3)c2C)cc1", "RP-LC retention time [s]": 1070}
{"line_notation": "Cc1cc(-c2c(C)sc(C)c2S(=O)(=O)NCCc2ccc(Cl)cc2)n[nH]1", "RP-LC retention time [s]": 1130}
{"line_notation": "CCCN1C(=O)COc2ccc(-c3csc(NC(=O)c4ccc(Br)cc4)n3)cc21", "RP-LC retention time [s]": 1160}

I: Cc1cccc2c3c(ccc12)C1=C(C(=O)C3=O)[C@@H](C)CO1
II: O=C(O)c1nnn(-c2ccccc2F)c1-c1ccccn1
### Prompt // returns I or II , whichever has the lower RP-LC retention time Reply briefly: the label of your chosen item.
### Response II

* * *

Assay: gradient 5% acetonitrile 3 min, to 50% in 2 min, to 85% in 15 min, held 3 min, 100 µL/min
Details: column: Zorbax Extend-C18 2.1 x 50 mm; eluents: water / acetonitrile, 0.1% formic acid
assay_readout: RP-LC retention time (s)

See these solved cases before continuing.
{"molecule": "CCCN(Cc1ccc(OC)c(OC)c1)Cc1cc(=O)n2cccc(C)c2n1", "unit_spec": "s", "RP-LC retention time": 620}
{"molecule": "O=C1CC(c2nc(-c3ccc(C(F)(F)F)cc3)no2)CN1c1ccc2c(c1)OCCO2 (centres undefined)", "unit_spec": "s", "RP-LC retention time": 1030}
{"molecule": "O=C(Cc1cccn1-c1ccccc1)NCc1cc(F)ccc1F", "unit_spec": "s", "RP-LC retention time": 936}
{"molecule": "Cc1ccc(N2CCN(Cc3c(C)noc3C)CC2)cc1", "unit_spec": "s", "RP-LC retention time": 621}
{"molecule": "O=C(Nc1ccc(-c2cn3cccnc3n2)cc1)C1CCCC1", "unit_spec": "s", "RP-LC retention time": 648}

A: COc1ccc(CC(=O)Nc2cnn(-c3ncc(N(C)C)cn3)c2)cc1Cl
B: CCc1cc(C(=O)Nc2ccc(C#N)cc2)nc2cc(-c3ccco3)nn12
### Prompt // returns A or B , whichever has the lower RP-LC retention time Reply briefly: the label of your chosen item.
### Response A

A: Cc1cc(C)n(Cc2nc(-c3ccc(NC(=O)c4ccc(C#N)cc4)cc3)oc2C)n1
B: O=C(CN1CCN(Cc2ccc(F)cc2)C1=O)NCCc1ccncc1
### Prompt // returns A or B , whichever has the lower RP-LC retention time Reply briefly: the label of your chosen item.
### Response B
(B: 596 s, A: 870 s)

* * *

Experiment: gradient 5% acetonitrile 3 min, to 50% in 2 min, to 85% in 15 min, held 3 min, 100 µL/min
Settings: column: Zorbax Extend-C18 2.1 x 50 mm; eluents: water / acetonitrile, 0.1% formic acid
assay_readout: RP-LC retention time (s)

See these solved cases before continuing.
{"molecule": "CCCn1c(=O)c(C)nc2cc(-c3noc(-c4ccc(F)c(F)c4)n3)ccc21", "assay_readout": "RP-LC retention time", "measurement": 1230}
{"molecule": "Cc1cccc(CNC(=O)c2cc(C(C)C)n3nccc3n2)c1", "assay_readout": "RP-LC retention time", "measurement": 1310}
{"molecule": "COc1cc(C(=O)NCCc2c[nH]c3ccc(C)cc23)cc(OC)c1OC", "assay_readout": "RP-LC retention time", "measurement": 814}

P: O=C(CN1C(=O)CC(c2ccccc2)=Nc2cccnc21)Nc1ccc(F)cc1F
Q: COc1ccc(N2C(=O)CCC(C(=O)NCCCN3CCCCCC3)C2c2ccc(F)cc2)cc1 (centres undefined)
### Prompt // returns P or Q , whichever has the lower RP-LC retention time Reply briefly: the label of your chosen item.
### Response Q
(Q: 610 s, P: 949 s)

a: Cc1ccc(C(C)C)c(OCC(=O)Nc2ccc(C(=O)O)cc2)c1
b: O=C(Cc1csc(-n2cccc2)n1)N1CCC(c2nc3ccccc3[nH]2)CC1
### Prompt // returns a or b , whichever has the lower RP-LC retention time Reply briefly: the label of your chosen item.
### Response b
(b: 558 s, a: 929 s)

* * *

Test: gradient 5% acetonitrile 3 min, to 50% in 2 min, to 85% in 15 min, held 3 min, 100 µL/min
Conditions: column: Zorbax Extend-C18 2.1 x 50 mm; eluents: water / acetonitrile, 0.1% formic acid
assay_readout: RP-LC retention time (s)

See these solved cases before continuing.
{"compound": "CCOCCCNC(=O)CC1CCN(c2ccnc(OC)n2)CC1", "unit_spec": "s", "RP-LC retention time": 574}
{"compound": "Cc1ccccc1NC(=O)C(=O)c1ccc[nH]1", "unit_spec": "s", "RP-LC retention time": 862}
{"compound": "Cc1cccc(N2CCN(S(=O)(=O)c3ccc4c(c3)CCCC(=O)N4)CC2)c1C", "unit_spec": "s", "RP-LC retention time": 983}

P: CCOc1ccc(-n2nnnc2CNS(=O)(=O)c2ccc(CC)s2)cc1
Q: Cc1cnc(-n2nnc(C(=O)N3CCOCC3)c2C)s1
### Prompt Which entry has a larger number for RP-LC retention time, P or Q ? Reply briefly: the label of your chosen item.
### Response P
(P: 949 s, Q: 658 s)

* * *

Assay: gradient 5% acetonitrile 3 min, to 50% in 2 min, to 85% in 15 min, held 3 min, 100 µL/min
Conditions: column: Zorbax Extend-C18 2.1 x 50 mm; eluents: water / acetonitrile, 0.1% formic acid
assay_readout: RP-LC retention time (s)

See these solved cases before continuing.
{"molecule": "Cc1ccc2c(c1)C(C)(C)C(=O)N2CC(=O)N1CCCCC1", "unit_spec": "s", "RP-LC retention time": 860}
{"molecule": "Cc1nc(-c2ccc(Cl)cc2)sc1CCNC(=O)c1ccco1", "unit_spec": "s", "RP-LC retention time": 946}
{"molecule": "O=C1CC(c2noc(-c3cccc(Cl)c3)n2)CN1c1ccc(F)cc1 (stereo not given)", "unit_spec": "s", "RP-LC retention time": 1030}
{"molecule": "CCCCN1CCN(C(=O)C2c3ccccc3CCN2C(=O)CC)CC1 (stereo not given)", "unit_spec": "s", "RP-LC retention time": 626}
{"molecule": "COc1ccc2c(c1)C1(CCN(S(=O)(=O)c3ccc(F)c(C)c3)C1)C(=O)N2 (stereo not given)", "unit_spec": "s", "RP-LC retention time": 874}

1: Oc1cccc(-c2nc3cnccn3c2Nc2ccc(F)cc2)c1
2: Cc1cc(NC(=O)Cn2c(-c3ccc(F)cc3)ncc(C#N)c2=O)ccc1Br
### Prompt Which entry has a larger number for RP-LC retention time, 1 or 2 ? Reply briefly: the label of your chosen item.
### Response 2

P: Cc1cc(-c2cc(S(=O)(=O)N3CCN(C4CCCCC4)CC3)c(C)s2)n[nH]1
Q: O=C(NCCc1csc(-c2ccc(Cl)cc2)n1)C(=O)Nc1ccc2c(c1)OCCO2
### Prompt // returns P or Q , whichever has the lower RP-LC retention time Reply briefly: the label of your chosen item.
### Response P
(P: 657 s, Q: 1030 s)

* * *

Experiment: gradient 5% acetonitrile 3 min, to 50% in 2 min, to 85% in 15 min, held 3 min, 100 µL/min
Details: column: Zorbax Extend-C18 2.1 x 50 mm; eluents: water / acetonitrile, 0.1% formic acid
assay_readout: RP-LC retention time (s)

See these solved cases before continuing.
{"molecule": "CCNC(=O)CCc1nc2ccccc2n(CC(=O)Nc2cccc(C(=O)OCC)c2)c1=O", "unit_spec": "s", "measurement": 775}
{"molecule": "C=CCn1c(=O)c2ccccc2n(Cc2nc(-c3ccccc3Br)no2)c1=O", "unit_spec": "s", "measurement": 1040}
{"molecule": "Cc1ccc2c(c1)N(S(C)(=O)=O)CCC(C(=O)Nc1ccccc1C)O2 (stereo not given)", "unit_spec": "s", "measurement": 894}
{"molecule": "C=C(C)CNc1nc(-c2ccccc2)c(-c2ccccc2)s1", "unit_spec": "s", "measurement": 1040}
{"molecule": "Cc1oc(C2CCN(S(=O)(=O)c3cccc(Cl)c3)CC2)nc1C(=O)N(C)C", "unit_spec": "s", "measurement": 864}
{"molecule": "Cc1ccc(S(=O)(=O)N2CCc3nc[nH]c3C2)cc1", "unit_spec": "s", "measurement": 591}
{"molecule": "Cc1ccc(NC(=O)c2cc(C3CC3)n3nccc3n2)c(C)c1", "unit_spec": "s", "measurement": 1110}
{"molecule": "CCC1CCCCN1CCCNC(=O)Cn1c(=O)c2cccn2c2ccc(F)cc21 (stereo not given)", "unit_spec": "s", "measurement": 641}
{"molecule": "O=C1CCC2(CNC(=O)c3n[nH]c(=O)c4ccccc34)CCCC=C2N1 (stereo not given)", "unit_spec": "s", "measurement": 634}
{"molecule": "O=C(O)c1cc2cc(OCc3ccccc3)ccc2[nH]1", "unit_spec": "s", "measurement": 903}

1: Cn1cc(SCC(=O)N2CCCc3ccccc32)c2ccccc21
2: Cc1cc2nc(NC3=NCN(CCO)CN3)nc(C)c2cc1C
### Prompt // returns 1 or 2 , whichever has the lower RP-LC retention time Reply briefly: the label of your chosen item.
### Response 2
